- test name: Drug level in alveolar cells of lung transplant recipient invasive aspergillosis patient at 150 mg, iv QD for 4 consecutive days measured after 3 hrs post last dose by HPLC
- Type: ADME, organism-based, Pneumocyte
- condition description: human, read-out: Drug uptake
Numbered stars: 1 amine (or outer) side, 2 acyl side, 3 side chain; on linkers, the order of the positions; unused ones are H or OH. Bridge positions count the residues as written; N and C are the ends. Square brackets hold non-standard residues; d marks the D form. Peptide text beside a SMILES is read from it. * marks the point of attachment. hTyr(3S-OH,4S-OH,3'-OSO3H) = N[C@H](C(=O)O)[C@H](O)[C@@H](O)c1ccc(O)c(OS(=O)(=O)O)c1; Orn(4R-OH,5R-OH) = O=C([C@H](C[C@@H](O)[C@@H](O)N[*:3])N[*:1])[*:2]; Pro(3S-OH,4S-Me) = C[C@H]1CN[C@H](C(=O)O)[C@H]1O; X1 = CCCCCOc1ccc(-c2cc(-c3ccc(C(=O)*)cc3)no2)cc1; Gln(3R-OH) = NC(=O)C[C@@H](O)[C@H](N)C(=O)O; Hyp = O=C(O)[C@@H]1C[C@@H](O)CN1
measurement label: concentration at 3 h (ng/mL)
State the answer as a number, implicitly in ng/mL.

concentration at 3 h lookup needed for CCCCCOc1ccc(-c2cc(-c3ccc(C(=O)N[C@H]4C[C@@H](O)[C@@H](O)NC(=O)[C@@H]5[C@@H](O)[C@@H](C)CN5C(=O)[C@H]([C@H](O)CC(N)=O)NC(=O)[C@H]([C@H](O)[C@@H](O)c5ccc(O)c(OS(=O)(=O)O)c5)NC(=O)[C@@H]5C[C@@H](O)CN5C(=O)[C@H]([C@@H](C)O)NC4=O)cc3)no2)cc1 [MICAFUNGIN] (X1-[Orn(4R-OH,5R-OH)]T[Hyp][hTyr(3S-OH,4S-OH,3'-OSO3H)][Gln(3R-OH)][Pro(3S-OH,4S-Me)]; lactam 1-C) , thanks.
7170
